ASSAY METRIC: pIC50
On this scale, pIC50 is minus log10 of a concentration expressed in M (mol/L).

Name the recorded pIC50 of CC(C[C@H](NC(=O)C1CCC1)c1ccccc1)N1CCC(n2cc(-c3ccccc3)[nH]c2=O)CC1 (some centres not stated) , assay system Voltage-gated inwardly rectifying potassium channel KCNH2 (Homo sapiens). 8.33

Look up Voltage-gated inwardly rectifying potassium channel KCNH2 (Homo sapiens) data: pIC50 of CC(C[C@H](NC(=O)C1CCC1)c1ccccc1)N1CCC(c2[nH]ncc2-c2ccncc2)CC1 (some centres not stated) , then report it. 6.93

---

# Test system: Human immunodeficiency virus 1
# PROTOCOL DESCRIPTION: microbe, parasite or virus in culture
# TEST CONTEXT: Human immunodeficiency virus 1, Bal, PM1
Answer each item with its documented IC90.
Respond numerically; units are nM and should not be typed.

Look up Human immunodeficiency virus 1 data: IC90 of CCN(C(=O)NCc1ccc(Cl)c(Cl)c1)C1CCN(C(C)C[C@H](NC(=O)C2CCC2)c2ccccc2)CC1 (stereo not given in full) , then report it. 0.236

Give IC90 for CCN(C(=O)OCc1ccccc1)C1CCN(C(C)C[C@H](NC(=O)C2CCC2)c2ccccc2)CC1 (stereo not given in full) tested on Human immunodeficiency virus 1. 0.322

Specify the recorded IC90 for CCN(C(=O)c1ccc(F)cc1)C1CCN(C(C)C[C@H](NC(=O)C2CCC2)c2ccccc2)CC1 (stereo not given in full) , system: Human immunodeficiency virus 1. 1630

Give the observed IC90 of CCN(C(=O)Oc1ccc(F)cc1)C1CCN(C(C)C[C@H](NC(=O)C2CCC2)c2ccccc2)CC1 (stereo not given in full) for Human immunodeficiency virus 1. 61.4

Under Human immunodeficiency virus 1, report IC90 for "Cc1nnc(C(C)C)n1[C@H]1C[C@H]2CC[C@@H](C1)N2CC[C@H](NC(=O)C1CCC(F)(F)CC1)c1ccccc1" 0.7
